Data origin, for the record: patent US20190144550A1

subject-of-test: T1, Monomeric 8-histidine tagged human EGFRvIII extracellular domain (human, UniProt P00533 298-645)
T1 construct: Analyte in all SPR assays; not shown: 8-histidine tag
protocol-text: SPR, captured by anti-mouse Fc, 37 C
recorded-endpoint: kon (M⁻¹ s⁻¹)
Answers are plain numbers, in M⁻¹ s⁻¹.

(Q) I would be grateful if you could share the reported kon for 21E7 (antibody, V domains shown, Hybridoma supernatant (AlivaMab mouse); captured/detected via mouse Fc) VH: QVTLEESGPVLVKPTETLTLTCTVSGFSLSNARMGVSWIRQPPGKAPEWFAHIFSTDEKSLRLSLRSRLTLSKDTSKSQVVLTMTNMDPVDTATYYCARDSSNYEGYFDYWGQGTLVTVSS VL: DVVLTQSPATLSVSPGERATLSCRASQSVNSNLAWYQQNPGQAPRLLIFGSSTRATGIPASFSGSGSGTEFTLTINSLQSEHSAVYYCQQYNDWPFTFGPGTKVDIK .
(A) 65200
